Reference source: patent US7994141B2

- Test system: NF-kB luciferase activity
- TEST DESCRIPTION: Anti-inflammatory effect: inhibition test of NF-kB luciferase activity (TNF-alpha treated fibroblasts)
- Assay type: cell-based, Human fibroblasts and mouse fibroblasts, NIH3T3
- Set-up: key: −: No effect; +: Weak effect; ++: Moderate effect; +++: Strong effect; ++++: Very strong effect
- EXPERIMENTAL PARAMETERS: individual compound of natural origin

COMPOUND	STUDY SYSTEM	Anti-inflammatory effect
O=C(O)/C=C/c1ccc(O)c(O)c1 [Caffeic acid]	NF-kB luciferase activity	+
O=C1O[C@H]([C@@H](O)CO)C(O)=C1O [Ascorbic acid]	NF-kB luciferase activity	+
CC(C)=CCC[C@](C)(O[C@@H]1O[C@H](CO[C@@H]2O[C@H](CO)[C@@H](O)[C@H](O)[C@H]2O)[C@@H](O)[C@H](O)[C@H]1O)[C@H]1CC[C@]2(C)[C@@H]1[C@H](O)C[C@@H]1[C@@]3(C)CC[C@H](O[C@@H]4O[C@H](CO)[C@@H](O)[C@H](O)[C@H]4O[C@@H]4O[C@H](CO)[C@@H](O)[C@H](O)[C@H]4O)C(C)(C)[C@@H]3CC[C@]12C [Ginsenoside Rb1]	NF-kB luciferase activity	+
